Tested on: PRKCD;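 also: KINOMEscan kinase panel screen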
run conditions: concentration: 1 μM, replicates: in singlicate; n = 1
In this section, each of the compounds is paired with its reported %Inh.

# annotated cases, reported %Inh shown
compound	%Inh
Cl.Cl.Cl.N#Cc1ccc(CCNc2nccc(-c3cccc(CN4CCNCC4)c3)n2)cc1	18%
Cc1ccc(-c2nc(Nc3ccncc3)c3ccccc3n2)s1	15%
CNCc1ccc2nc(NC(=O)c3ccc(C(C)(C)C)cc3)cn2c1	0%
CC(=O)c1cccc(NC(=O)NC2CCN(c3ccnc(Nc4ccc(F)cc4)n3)C2)c1 (stereo not drawn)	0%
Cc1c(Cn2c(C)c(C)n3c(=O)cc(N4CCOCC4)nc23)cccc1C(F)(F)F	0%

Query string: # lookup: %Inh of "FC(F)(F)c1ccccc1-c1cc(-c2c[nH]nc2-c2ccccn2)ccn1"
Result string: 6%

Value source: paper PMC5540273
